test_protocol: Solubility in water
Assay type: physicochemical
observable: solubility

// field: solubility; key: CCC(CC)CC1(C(=O)Nc2ccccc2SC(=O)C(C)C)CCCCC1 [Compound I] ; value = < 0.1 µg/mL
